The reader will find reported melting point values listed item by item below.

molecule	value.kind	val
CCN1c2ncccc2C(NC)=Nc2c(C)cc(C)nc21	melting point	128 to 130 °C
Cc1cc(NC(=O)Nc2c(C)cccc2C)no1	melting point	200 °C
CCOc1cc(OCCCc2cn(-c3ccc(C(F)(F)F)cn3)nc2OCc2ccccc2)ccc1CCC(=O)O	melting point	106 to 107 °C
O=C(c1ccc(-c2ccc(=O)n(-c3ccc(F)cc3)n2)cc1)N1CCC[C@H]1CN1CCCC1	melting point	177 °C
O=S(=O)(Nc1nc2ncccn2n1)c1ccccc1Cl	melting point	254 to 256 °C

# melting point lookup, item Cc1ccc(C(=O)OC2CCN(Cc3cccc(N)c3)CC2)cc1
100 to 102 °C

How about this molecule: BrCc1ccc(C=Cc2ccccc2)cc1
125 to 127 °C

###

The reader will find reported melting point values listed item by item below.

compound	melting point
CC(C)(C)OC(=O)CN(C(=O)CNC(=O)Nc1cccc(CC(=O)O)c1)c1ccccc1C(=O)c1ccccc1	96 to 98 °C
O=C(COCC(=O)Nc1ccc([N+](=O)[O-])c(C(F)(F)F)c1)Nc1ccc([N+](=O)[O-])c(C(F)(F)F)c1	137 to 138 °C

# melting point lookup, item COCCOC(=O)NC(=O)CCCCCN=C=O
77 °C

How about this compound: Cc1ccc(S(=O)(=O)N2[C@@H](CCn3cccn3)CC[C@H]2c2ccc(F)cc2)cc1 (racemic)
121 °C

How about this compound: CC(Cc1cccc([N+](=O)[O-])c1)[N+](=O)[O-] (stereo unspecified)
56 to 58 °C

How about this compound: CCCOc1ccc([N+](=O)[O-])cc1C1=NC(=O)C2=NC=NC2=N1
254 to 256 °C

How about this compound: CCCCCCCc1cnc(N)s1
75 to 76 °C

###

value.kind: melting point

Solved cases (4 shown):
compound	val
CCOC(=O)c1cc2cc(OCCCS(C)(=O)=O)cc([N+](=O)[O-])c2[nH]1	162 to 163 °C
COc1cc2ncnc(Nc3cccc(Br)c3)c2cc1OCCN1CC(=O)O[C@@H](C)C1	190 °C
COC(=O)c1cccc(NC(N)=S)c1	171 to 172 °C
O=c1[nH]c2ccccc2n1C1CCN(CC(O)CSc2ccc(F)cc2)CC1 (stereo not given)	155 to 157 °C

Shift focus to the following entry.
# melting point lookup, item CC(=O)C1=CCC2C3CCC4CC(O)C(Cl)CC4(C)C3CCC12C (stereo not given)
246 to 252 °C

###

The reader will find reported melting point values listed item by item below.

compound	melting point
Cn1c(-c2ccccc2)c(C=O)c2ccc(Cl)cc2c1=O	172 to 173 °C
CCOC(=O)NN(C)c1cc(C)c(-c2ccc(C#N)cc2)nn1	138 to 142 °C
Cc1ccnn1-c1c(Cl)cc(C(F)(F)F)cc1Cl	78 to 84 °C
CCCc1c(OCc2cccc(C(=O)O)c2OCC)ccc(C(C)=O)c1O	154 to 156 °C
CCCc1c(C(=O)OCC)sc2[nH]c(=O)c(=O)[nH]c12	305 to 307 °C
CC(C)(C)OC(=O)N1CCC(CCC(=O)N2CCC[C@@H](C(=O)O)C2)CC1	102 to 104 °C
N#Cc1ccc2oc3c(c2c1)CCC(C(=O)O)C3 (configuration not stated)	185 to 190 °C
COc1cc2c(cc1OC)C(C(S)(C#N)c1ccccc1)=NCC2 (configuration not stated)	160 to 161 °C
CC(C)C[C@H](NC(=O)c1ccccc1)C(=O)N[C@@H](C(C)C)[C@@H](O)c1c(-c2ccccc2)c1=O	150 to 154 °C
CC1(C)Cc2nc(C3CCCC3)c(C(F)c3ccc(C(F)(F)F)cc3)c(-c3ccc(F)c(F)c3)c2C(O)C1 (configuration not stated)	149 to 150 °C

# melting point lookup, item Cc1cscc1NC(=S)NC1CCCCC1N (configuration not stated)
205 to 210 °C

How about this compound: O=C(O)c1cc(NC(=O)C(CS)Cc2ccccc2)ccc1Cl (configuration not stated)
190 to 192 °C

How about this compound: NC(=O)c1sc2ncnc(-c3cccc(NC(=O)Nc4ccncc4)c3)c2c1N
177 to 179 °C

How about this compound: CC1(C)CCC2CCCCC2C1NC=NC#N (configuration not stated)
228 °C

How about this compound: CCOC(=O)N(c1ccc(Cl)cc1N)c1ccc(Cl)cc1Cl
137 to 139 °C

How about this compound: CCOC(=O)CCc1cc(-c2ccccc2)n(-c2ccc(S(C)(=O)=O)cc2)n1
96.5 to 99.1 °C

How about this compound: O=S(=O)(F)c1ccc(N=Nc2ccc(O)c(Cl)c2)cc1
133 to 134 °C

How about this compound: O=c1c(O)c(-c2nnc(Cc3ccc(F)cc3)o2)oc2ccccc12
221 °C

###

The reader will find reported melting point values listed item by item below.

Solved cases (8 shown):
molecule	melting point
O=C(O)C1=CSC2C(=Cc3ccc4nc5n(c4c3)CCCS5)C(=O)N12 (centres undefined)	> 250 °C
NC(=O)c1ccc(Nc2nc(OCC3CCCCC3)c3nc[nH]c3n2)cc1	156 to 158 °C
COc1cc2cc(C3CCCCC3)sc2c(Cl)c1Cl	60 °C
C[C@@H]1C(=O)N(CC(=O)CCc2ccccc2)[C@H]1SCc1ccccc1 (relative stereo)	69 to 71 °C
NOCC(O)CN1CCOCC1 (centres undefined)	83 to 85 °C
COC(=O)C=C(NC1C=CC=CC1(F)NC(=CC(=O)OC)C(=O)OC)C(=O)OC (centres undefined)	170 to 174 °C
Cc1c(C)c2c(c(C)c1NC(=O)CC(C)(C)C)C(c1ccc(C(C)CC(=O)O)cc1)CO2 (centres undefined)	209 to 210 °C
Cc1cccc(NC(=O)Nc2c(-c3ccccc3Cl)c3cc(C)c(C)cc3n(C)c2=O)c1	210 to 211 °C

# melting point lookup, item N#CN=C(Nc1cccnc1)NC(CC12CC3CC(CC(C3)C1)C2)NC(=O)c1ccc(Cl)cc1 (centres undefined)
202 to 203 °C

How about this molecule: CS(=O)(=O)c1ccc(C(=O)C(=O)c2ccc(F)cc2)cc1
174 to 175 °C

How about this molecule: CC(=O)N[C@@H](C)COc1ccc2nc(-c3cc(F)c(OCC4CC4)cc3F)oc2c1F
153 °C

How about this molecule: Cn1cc(-c2ccccc2)c(=O)c(-c2ccc(C(F)(F)F)cc2)c1
164 to 166 °C

How about this molecule: COC(=O)c1ccnc(N2CCN(Cc3ccccn3)C2=O)c1
100 to 102 °C

How about this molecule: COc1cccc(C23CCN(Cc4ccccc4)C(CC(=O)C2)C3)c1 (centres undefined)
108 to 109 °C

How about this molecule: CC(C)(C)NOC(=O)c1n[nH]c2c(=O)[nH]c3cc(Cl)ccc3c(=O)c12
258 °C

How about this molecule: OCc1ccnc(Nc2ncc(-c3ccccc3)s2)c1
236 to 237 °C

How about this molecule: CCOC(=O)c1ccc(NC(=O)Cc2csc3nc(C(=O)NCc4cccc(OC)c4)[nH]c(=O)c23)cc1
222 to 223 °C

How about this molecule: Cc1sc(-c2ccccc2)nc1COc1ccc(COc2nn(C)cc2CC(=O)O)cn1
140 to 141 °C

How about this molecule: CC(=O)N1CCN(c2c(F)cc3c(=O)c(C(=O)O)cn(C4CC4)c3c2C)CC1C (centres undefined)
219 to 221 °C

How about this molecule: O=C1C(=O)c2ccc(-c3ccncc3)cc2C2=C1SCC1(CCNCC1)O2
223 to 228 °C

How about this molecule: O=C(NO)[C@H](CNS(=O)(=O)c1ccc(OCCc2ccccc2)cc1)N1CCOCC1
77 °C

How about this molecule: CC(C)n1nc(-c2sc(NC(=O)c3ccc(CNCCN4CCOCC4)cc3)nc2-c2ccccc2)ccc1=O
86 to 88 °C

How about this molecule: CCCN(CCC)c1ccc(S(=O)(=O)NCCCCC(=O)O)cc1
95 to 98 °C

How about this molecule: CCCC12CCC3C4CCC(=O)C=C4CCC3C1CCC2(O)CC (centres undefined)
93 to 95 °C

How about this molecule: CCOc1ccc(OCCCCCN2CCN(c3nccs3)CC2)cc1
79 to 81 °C

How about this molecule: CCCCCCCCCCCCCCOc1ccc(O)cc1
81 to 82 °C

###

The reader will find reported melting point values listed item by item below.

Solved cases (5 shown):
compound	melting point
CN(C)CCOc1ccccc1NC(=O)c1cccc2[nH]ccc12	110 °C
COC(=O)c1ccccc1OCCCn1c(C(=O)C2CCN(CCC3(c4ccccc4)CCN(C(=O)c4cc(OC)c(OC)c(OC)c4)C3)CC2)nc2ccccc21 (centres undefined)	74 to 80 °C
COC(=O)N(C(=O)CC(O)(Cn1cncn1)c1ccc(Cl)cc1Cl)C(=O)OC (centres undefined)	155 to 156 °C
CCCC(=O)c1cnc2c(OC)cccc2c1Nc1ccc(OC(=O)C(C)C)cc1C	123 to 125 °C
CCCCCNC(CCCCC)=C1C(=O)ON=C1C	36 °C

# melting point lookup, item c1cn(Cc2ccc3c(c2)-c2[nH]nc(-c4ccsc4)c2C3)cn1
200 to 204 °C

How about this compound: O=C1Nc2ccc(C3CC4CCC3C4)cc2C12OCCO2 (centres undefined)
159 to 161 °C

How about this compound: CSc1c(C)[nH]c2ccc([N+](=O)[O-])cc12
198 °C

How about this compound: CN(C)CC#Cc1ccc2c(Nc3ccc(Cl)cc3Cl)c(C#N)cnc2c1
144 to 145 °C
